Assign IC50 to each entry below.
- Tested on: KB
- MEASUREMENT_PROTOCOL: Cytotoxicity against human KB cells by colorimetric method
- Type: functional, cell-based
Numbers only, in µM.

# MOLECULE_SMILES, IC50 (µM)
rows = [
    ("CCCCCCCc1cc(O)cc(OC(=O)c2c(O)cc(O)cc2CCCCCCC)c1", 13),
]

Task: Returns the measured IC50 for the input compound. Input: Cc1c2ccncc2c(C)c2c1[nH]c1ccccc12
Output: 1.99

---

- Tested on: Vero
- MEASUREMENT_PROTOCOL: Cytotoxicity against African green monkey Vero cells by colorimetric method
- Assay type: cell-based
- CONDITION_PARAMETERS: Chlorocebus sabaeus
Exercise: for every item that follows, state its recorded IC50.
One number for each entry, in µM.

# COMPOUND, IC50 (µM)
measured = [
    ("CCCCCCCc1cc(O)cc(OC(=O)c2c(CCCCCCC)cc(O)cc2O[C@@H]2O[C@H](CO)[C@H](O)[C@H](O)[C@H]2O)c1", 43.2),
    ("CCCCCCCc1cc(O)cc(OC(=O)c2c(CCCCCCC)cc(O)cc2O[C@@H]2O[C@H](CO[C@@H]3O[C@H](CO)[C@H](O)[C@H](O)[C@H]3O)[C@H](O)[C@H](O)[C@H]2O)c1", 32.1),
    ("CCCCCCCc1cc(O)cc(OC(=O)c2c(O)cc(O)cc2CCCCCCC)c1", 34.3),
]

Please look at the following compound next.
Task: Reported IC50 for Cc1c2ccncc2c(C)c2c1[nH]c1ccccc12 [ELLIPTECINE] : what is it?
Output: 10.2

---

- Tested on: KB
- MEASUREMENT_PROTOCOL: Cytotoxicity against human KB cells by colorimetric method
- Type: functional, cell-based
pIC50: −log10 of the molar value.
PROPERTY_NAME: pIC50

# MOLECULE_SMILES, ENDPOINT_RESULT
data = [
    ("CCCCCCCc1cc(O)cc(OC(=O)c2c(CCCCCCC)cc(O)cc2O[C@@H]2O[C@H](CO[C@@H]3O[C@H](CO)[C@H](O)[C@H](O)[C@H]3O)[C@H](O)[C@H](O)[C@H]2O)c1", "< 4.60"),
    ("CCCCCCCc1cc(O)cc(O[C@@H]2O[C@H](CO)[C@@H](OC)[C@H](O)[C@H]2O)c1", "< 4.30"),
]

Task: Consider the molecule shown here: CCCCCCCc1cc(O)cc(OC(=O)c2c(CCCCCCC)cc(O)cc2O[C@@H]2O[C@H](CO)[C@H](O)[C@H](O)[C@H]2O)c1 What is its recorded pIC50?
Output: < 4.60
